Value source: patent US12637478B2

Test system: S. epidermis^MR
Assay: MIC by broth microdilution (aerobic pathogens), test strain 6
Format: cell-based, Methicillin resistant Staphylococcus epidermidis
Conditions: Staphylococcus epidermidis
readout: MIC (µg/mL)
Just the number please, in µg/mL, no unit attached.

[Q] Fill in: MIC of CN[C@H](CC(C)C)C(=O)N[C@H]1C(=O)N[C@@H](CC(N)=O)C(=O)N[C@H]2C(=O)N[C@H]3C(=O)N[C@H](C(=O)N[C@H](C(=O)O)c4cc(O)cc(O)c4-c4cc3ccc4O)[C@H](O)c3ccc(c(Cl)c3)Oc3cc2cc(c3O[C@@H]2O[C@H](CO)[C@@H](O)[C@H](O)[C@H]2O[C@H]2C[C@](C)(N)[C@H](O)[C@H](C)O2)Oc2ccc(cc2Cl)[C@H]1O [Van, Vancomycin, reference compound] is ___
[A] 0.5

[Q] Query: MIC; subject: C/C=C1\NC(=O)[C@H]([C@@H](C)O)NC(=O)c2csc(n2)-c2ccc(-c3nc(-c4nc(C(=O)NC5(C(=O)NCCCN6CCOCC6)CC5)cs4)cs3)nc2-c2csc(n2)[C@H]([C@@H](C)O)NC(=O)c2csc(n2)[C@H](C(C)C)NC(=O)c2csc1n2 [Compound 7]
[A] 0.125

[Q] MIC for C/C=C1\NC(=O)[C@H]([C@@H](C)O)NC(=O)c2csc(n2)-c2ccc(-c3nc(-c4nc(C(=O)NC5(C(=O)NCCN6C(=O)CNC6=O)CC5)cs4)cs3)nc2-c2csc(n2)[C@H]([C@@H](C)O)NC(=O)c2csc(n2)[C@H](C(C)C)NC(=O)c2csc1n2 [Compound 5] ?
[A] 0.5

###

Would you kindly list MIC for each of these compounds?
Tested on: E. faecalis
Test: MIC by broth microdilution (aerobic pathogens), test strain 7
Format: cell-based
Conditions: Enterococcus faecalis; test strain 7, E. faecalis; read-out: MIC
Write the number in µg/mL without appending the unit.

[Q] Endpoint output: MIC of `C/C=C(\NC(=O)c1csc(-c2csc(-c3ccc4c(n3)-c3csc(n3)[C@H]([C@@H](C)O)NC(=O)c3csc(n3)[C@H](C(C)C)NC(=O)c3csc(n3)/C(=C/C)NC(=O)[C@H]([C@@H](C)O)NC(=O)c3csc-4n3)n2)n1)C(=O)NCCCN1CCOCC1` . Value?
[A] 0.5

[Q] MIC lookup needed for CC(=O)NC[C@H]1CN(c2ccc(N3CCOCC3)c(F)c2)C(=O)O1 [Lin, Linezolid, reference compound] , thanks.
[A] 2

[Q] Tell me the measured MIC of `C/C=C1\NC(=O)[C@H]([C@@H](C)O)NC(=O)c2csc(n2)-c2ccc(-c3nc(-c4nc(C(=O)NC5(C(=O)NCCN6CCOCC6)CC5)cs4)cs3)nc2-c2csc(n2)[C@H]([C@@H](C)O)NC(=O)c2csc(n2)[C@H](C(C)C)NC(=O)c2csc1n2` , please.
[A] 0.5

[Q] Entry `C/C=C1\NC(=O)[C@H]([C@@H](C)O)NC(=O)c2csc(n2)-c2ccc(-c3nc(-c4nc(C(=O)NC5(C(=O)NCCN6CCN(C(C)C)CC6)CC5)cs4)cs3)nc2-c2csc(n2)[C@H]([C@@H](C)O)NC(=O)c2csc(n2)[C@H](C(C)C)NC(=O)c2csc1n2` has what MIC?
[A] 0.5

[Q] Requested read-out: MIC. Entry: `C/C=C1\NC(=O)[C@H]([C@@H](C)O)NC(=O)c2csc(n2)-c2ccc(-c3nc(-c4nc(C(=O)NC5(C(=O)NCCCN6CCOCC6)CC5)cs4)cs3)nc2-c2csc(n2)[C@H]([C@@H](C)O)NC(=O)c2csc(n2)[C@H](C(C)C)NC(=O)c2csc1n2`
[A] 0.25

[Q] MIC lookup needed for `C/C=C1\NC(=O)[C@H]([C@@H](C)O)NC(=O)c2csc(n2)-c2ccc(-c3nc(-c4nc(C(=O)NC5(C(=O)NCCN6C(=O)CSC6=O)CC5)cs4)cs3)nc2-c2csc(n2)[C@H]([C@@H](C)O)NC(=O)c2csc(n2)[C@H](C(C)C)NC(=O)c2csc1n2` , thanks.
[A] 0.5

[Q] Would you kindly share the measured MIC for `C/C=C1\NC(=O)[C@H]([C@@H](C)O)NC(=O)c2csc(n2)-c2ccc(-c3nc(-c4nc(C(=O)NC5(C(=O)NCCCN6CCSCC6)CC5)cs4)cs3)nc2-c2csc(n2)[C@H]([C@@H](C)O)NC(=O)c2csc(n2)[C@H](C(C)C)NC(=O)c2csc1n2` ?
[A] 1

[Q] I am curious: what MIC value has been reported for `C/C=C(\NC(=O)c1csc(-c2csc(-c3ccc4c(n3)-c3csc(n3)[C@H]([C@@H](C)O)NC(=O)c3csc(n3)[C@H](C(C)C)NC(=O)c3csc(n3)/C(=C/C)NC(=O)[C@H]([C@@H](C)O)NC(=O)c3csc-4n3)n2)n1)C(=O)NCCn1cnc([N+](=O)[O-])n1` ?
[A] 0.5

[Q] GET /values?readout=MIC&item= `C/C=C1\NC(=O)[C@H]([C@@H](C)O)NC(=O)c2csc(n2)-c2ccc(-c3nc(-c4nc(C(=O)NC5(C(=O)NCCN6CCN(S(N)(=O)=O)CC6)CC5)cs4)cs3)nc2-c2csc(n2)[C@H]([C@@H](C)O)NC(=O)c2csc(n2)[C@H](C(C)C)NC(=O)c2csc1n2`
[A] 1

[Q] Recorded MIC of `C/C=C1\NC(=O)[C@H]([C@@H](C)O)NC(=O)c2csc(n2)-c2ccc(-c3nc(-c4nc(C(=O)NC5(C(=O)NCCn6c([N+](=O)[O-])cnc6C)CC5)cs4)cs3)nc2-c2csc(n2)[C@H]([C@@H](C)O)NC(=O)c2csc(n2)[C@H](C(C)C)NC(=O)c2csc1n2` , please.
[A] 0.25

[Q] Quick one: MIC for `C/C=C(\NC(=O)c1csc(-c2csc(-c3ccc4c(n3)-c3csc(n3)[C@H]([C@@H](C)O)NC(=O)c3csc(n3)[C@H](C(C)C)NC(=O)c3csc(n3)/C(=C/C)NC(=O)[C@H]([C@@H](C)O)NC(=O)c3csc-4n3)n2)n1)C(=O)NCCCN1CCN(C(C)C)CC1` ?
[A] 1

[Q] Suppose we examine the compound `C/C=C(\NC(=O)c1csc(-c2csc(-c3ccc4c(n3)-c3csc(n3)[C@H]([C@@H](C)O)NC(=O)c3csc(n3)[C@H](C(C)C)NC(=O)c3csc(n3)/C(=C/C)NC(=O)[C@H]([C@@H](C)O)NC(=O)c3csc-4n3)n2)n1)C(=O)NCCN1CCOCC1` ; what MIC value has been reported?
[A] 0.25

[Q] Tell me the measured MIC of `C/C=C1\NC(=O)[C@H]([C@@H](C)O)NC(=O)c2csc(n2)-c2ccc(-c3nc(-c4nc(C(=O)NC5(C(=O)NCCCN6CCN(C(C)C)CC6)CC5)cs4)cs3)nc2-c2csc(n2)[C@H]([C@@H](C)O)NC(=O)c2csc(n2)[C@H](C(C)C)NC(=O)c2csc1n2` , please.
[A] 1

[Q] Request the reported MIC associated with C/C=C1\NC(=O)[C@H]([C@@H](C)O)NC(=O)c2csc(n2)-c2ccc(-c3nc(-c4nc(C(=O)NC5(C(=O)NCC6OB(O)c7ccccc76)CC5)cs4)cs3)nc2-c2csc(n2)[C@H]([C@@H](C)O)NC(=O)c2csc(n2)[C@H](C(C)C)NC(=O)c2csc1n2 (stereo partly drawn)
[A] 0.125

[Q] Quick one: MIC of `C/C=C(\NC(=O)c1csc(-c2csc(-c3ccc4c(n3)-c3csc(n3)[C@H]([C@@H](C)O)NC(=O)c3csc(n3)[C@H](C(C)C)NC(=O)c3csc(n3)/C(=C/C)NC(=O)[C@H]([C@@H](C)O)NC(=O)c3csc-4n3)n2)n1)C(=O)NCCN1CCN(C(C)C)CC1` ?
[A] 0.5

###

Tested on: C. difficile 9689
Test: MIC by agar dilution against Clostridioides difficile, test strain 13
Type: cell-based
Conditions: test strain 13, C. difficile 9689, anaerobic, agar dilution, read-out: MIC
Would you mind telling me the reported MIC of each entry?
Respond numerically; units are µg/mL and should not be typed.

[Q] Item C/C=C1\NC(=O)[C@H]([C@@H](C)O)NC(=O)c2csc(n2)-c2ccc(-c3nc(-c4nc(C(=O)NC5(C(=O)NCc6ncc([N+](=O)[O-])n6C)CC5)cs4)cs3)nc2-c2csc(n2)[C@H]([C@@H](C)O)NC(=O)c2csc(n2)[C@H](C(C)C)NC(=O)c2csc1n2 [Compound 44] with C. difficile 9689 - MIC?
[A] 0.5

[Q] Report MIC for C/C=C1\NC(=O)[C@H]([C@@H](C)O)NC(=O)c2csc(n2)-c2ccc(-c3nc(-c4nc(C(=O)NC5(C(=O)NCCn6c([N+](=O)[O-])cnc6C)CC5)cs4)cs3)nc2-c2csc(n2)[C@H]([C@@H](C)O)NC(=O)c2csc(n2)[C@H](C(C)C)NC(=O)c2csc1n2 [Compound 11] tested on C. difficile 9689.
[A] 1

[Q] GET /values?readout=MIC&system=C. difficile 9689&item= C/C=C1\NC(=O)[C@H]([C@@H](C)O)NC(=O)c2csc(n2)-c2ccc(-c3nc(-c4nc(C(=O)NC5(C(=O)NCCn6ccnc6[N+](=O)[O-])CC5)cs4)cs3)nc2-c2csc(n2)[C@H]([C@@H](C)O)NC(=O)c2csc(n2)[C@H](C(C)C)NC(=O)c2csc1n2 [Compound 39]
[A] 0.25

[Q] GET /values?readout=MIC&system=C. difficile 9689&item= C/C=C1\NC(=O)[C@H]([C@@H](C)O)NC(=O)c2csc(n2)-c2ccc(-c3nc(-c4nc(C(=O)NC5(C(=O)NCCCN6CCSCC6)CC5)cs4)cs3)nc2-c2csc(n2)[C@H]([C@@H](C)O)NC(=O)c2csc(n2)[C@H](C(C)C)NC(=O)c2csc1n2 [Compound 18]
[A] 0.5

[Q] C. difficile 9689 / MIC / C/C=C1\NC(=O)[C@H]([C@@H](C)O)NC(=O)c2csc(n2)-c2ccc(-c3nc(-c4nc(C(=O)NC5(C(=O)NCCCN6C(=O)CNC6=O)CC5)cs4)cs3)nc2-c2csc(n2)[C@H]([C@@H](C)O)NC(=O)c2csc(n2)[C@H](C(C)C)NC(=O)c2csc1n2 [Compound 9] : value?
[A] 0.5

[Q] // lookup MIC | system=C. difficile 9689 | key= C/C=C1\NC(=O)[C@H]([C@@H](C)O)NC(=O)c2csc(n2)-c2ccc(-c3nc(-c4nc(C(=O)NC5(C(=O)NCCn6cc([N+](=O)[O-])nc6C)CC5)cs4)cs3)nc2-c2csc(n2)[C@H]([C@@H](C)O)NC(=O)c2csc(n2)[C@H](C(C)C)NC(=O)c2csc1n2 [Compound 45]
[A] 0.5

[Q] Give C. difficile 9689 MIC for C/C=C1\NC(=O)[C@H]([C@@H](C)O)NC(=O)c2csc(n2)-c2ccc(-c3nc(-c4nc(C(=O)NC5(C(=O)NCCCN6CCN(C(C)C)CC6)CC5)cs4)cs3)nc2-c2csc(n2)[C@H]([C@@H](C)O)NC(=O)c2csc(n2)[C@H](C(C)C)NC(=O)c2csc1n2 [Compound 12]
[A] 0.5
